molecular target: EP2 receptor (Homo sapiens); experiment: EP2 Potency Assay (cAMP TR-FRET, CHO-K1 cells transfected with EP2 receptor, PGE2 at EC80); details: CHO-K1 cells expressing EP2, prostaglandin E2 at EC80, read-out: EP2 Potency (IC50 category)
Sequence (P43116 whole entry): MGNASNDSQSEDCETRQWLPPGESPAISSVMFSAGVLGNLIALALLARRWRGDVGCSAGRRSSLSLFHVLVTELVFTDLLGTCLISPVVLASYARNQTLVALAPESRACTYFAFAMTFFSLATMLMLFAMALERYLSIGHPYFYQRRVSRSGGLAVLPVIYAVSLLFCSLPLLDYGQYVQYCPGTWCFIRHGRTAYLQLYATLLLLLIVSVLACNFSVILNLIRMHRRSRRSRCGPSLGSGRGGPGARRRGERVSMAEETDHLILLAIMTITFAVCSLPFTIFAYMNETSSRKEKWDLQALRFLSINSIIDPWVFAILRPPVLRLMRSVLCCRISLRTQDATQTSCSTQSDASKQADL
assay.endpoint: IC50

Below, 4 compounds whose answers are already recorded.
{"columns": ["compound", "assay.endpoint", "reported.result"],
 "data": [
  ["O=c1ncc(CN2CCOc3c(Cl)cc(-n4ccc5cc(F)ccc54)cc3C2)c[nH]1", "IC50", "< 0.1 µM"],
  ["COc1ncc(CN2CCOc3c(Cl)cc(-c4cccc5ccccc45)cc3C2)cn1", "IC50", "1 to 5 µM"],
  ["COc1ncc(CN2CCOc3c(Cl)cc(N4Cc5ccc(F)cc5C4)cc3C2)cn1", "IC50", "1 to 5 µM"],
  ["COc1ncc(CN2CCOc3c(Cl)cc(N4CCS(=O)(=O)c5ccccc54)cc3C2)cn1", "IC50", "> 5 µM"]
]}

Q: Param item = Nc1cc(CN2CCOc3c(Cl)cc(-n4ccc5cc(F)ccc54)cc3C2)ccn1 ; retrieve measured IC50.
A: 1 to 5 µM

Q: Param item = NC(=O)[C@H]1CC[C@H](CN2CCOc3c(Cl)cc(-n4ccc5cc(F)ccc54)cc3C2)CC1 ; retrieve measured IC50.
A: 0.5 to 1 µM

Q: Param item = COc1ncc(CN2CCOc3c(Cl)cc(-n4cc(Cl)c5cc(Cl)ccc54)cc3C2)cn1 ; retrieve measured IC50.
A: > 5 µM

Q: Param item = O=C1CC(CN2CCOc3c(Cl)cc(-n4ccc5cc(F)ccc54)cc3C2)CCN1 (centres unmarked) ; retrieve measured IC50.
A: 1 to 5 µM

Q: Param item = COc1ncc(CN2CCOc3c(Cl)cc(-n4ccc5ncccc54)cc3C2)cn1 ; retrieve measured IC50.
A: 0.5 to 1 µM
